System: SR leukemia
Experiment: NCI-60 one-dose screen, 48 h (100 = growth as untreated, 0 = no growth, -100 = all killed)
Conditions: 10 µM unless noted
About 83,000 compounds went through this panel and 20% of them were active in at least one assay; those are over-represented in the sample as a whole.
Decide by growth: equal to or exceeding 80% means Met, less means Not met.

In [3]: df
Out[3]:
                                    compound      cat
 0     Cc1cc(CC(=O)O)n(C)c1C(=O)c1ccc(Cl)cc1      Met
 1                           CC1=CSC2=NCCN12      Met
 2  COc1ccc(-c2nn(-c3cccc(Cl)c3)cc2C2CC(c3ccccc3)=NN2C(C)=O)cc1 (configuration not stated)  Not met
 3                       CCCCSc1cc(C)nc(N)n1      Met
 4  COc1ccc(-c2noc(N)c2-c2cc(OC)c3c(c2)OCO3)cc1  Not met
 5  Cc1cccc(Cl)c1NC(=O)c1ccc2nc(NC(=O)NC3CC(C)(C)NC(C)(C)C3)sc2c1      Met
 6     ClC1=C(Cl)C(Cl)=C(Cl)C1=Cc1ccc(Cl)cc1  Not met
 7        NC(N)=N/N=C(/c1ccccc1)c1ccc(Cl)cc1  Not met
 8            Cc1cc(NC(=O)Nc2cc(Cl)ccc2C)no1  Not met
 9        CN(C(=O)c1ccccc1)N(C)C(=O)c1ccccc1      Met
10          COc1cc(OC)c2cc(C(=O)O)c(=O)oc2c1      Met
11  CCn1c2c(c3ccccc31)SC1c3cccn3CCN1C2=S (configuration not stated)      Met

Just for reference, PubChem BioAssay (NCI) is where these values come from.
